assay: Rat pharmacokinetics, oral dosing; type: in vivo, Sprague-Dawley rats; settings: male, Sprague-Dawley, plasma, oral dosing at 3 mg/kg
Catalogue of bioavailability values

# annotated cases, reported bioavailability shown
COMPOUND: COc1cc(Cl)ccc1COc1cccc(C2CCN(Cc3nc4c(OC(F)F)cc(C(=O)O)cc4n3C)CC2)n1 [Compound 226]
ASSAY RESULT: > 85%
//
COMPOUND: COc1cc(C(=O)O)cc2c1nc(CN1CCC(c3cccc(OCc4ccc(C(F)F)cc4F)n3)CC1)n2C [Compound 305]
ASSAY RESULT: 50 to 85%

Now take the following compound into account.
For COc1cc(C(=O)O)c(F)c2c1nc(CN1CCC(c3cccc(OCc4ccc(C#N)cc4F)n3)CC1)n2C [Compound 303] the compound record lists bioavailability as < 25%

* * *

assay: Rat pharmacokinetics, oral dosing; type: in vivo, Sprague-Dawley rats; conditions: male, Sprague-Dawley, plasma, oral dosing at 3 mg/kg
Catalogue of bioavailability values

SMILES ENTRY: C[C@]1(c2ccc(Cl)cn2)Oc2cccc(C3CCN(Cc4nc5c(OCCF)cc(C(=O)O)cc5n4C[C@@H]4CCO4)CC3)c2O1
bioavailability: < 25%

SMILES ENTRY: COc1cc(C(F)(F)F)ccc1COc1cccc(C2CCN(Cc3nc4c(OC(F)F)cc(C(=O)O)cc4n3C)CC2)n1
bioavailability: 50 to 85%

SMILES ENTRY: [2H]C([2H])(C)Oc1cc(C(=O)O)cc2c1nc(CN1CCC(c3cccc(OCc4ccc(Cl)cc4F)n3)CC1)n2C
bioavailability: 25 to 50%

SMILES ENTRY: COc1cc(C(=O)O)cc2c1nc(CN1CCC(c3cccc(OCc4ccc(Cl)c5c4OCC5)n3)CC1)n2C
bioavailability: 25 to 50%

SMILES ENTRY: Cn1c(CN2CCC(c3cccc4c3O[C@@H](c3ccc(Cl)cc3F)CO4)CC2)nc2c(OCCF)cc(C(=O)O)cc21
bioavailability: 50 to 85%

SMILES ENTRY: Cn1c(CN2CCC(c3ccc(F)c(OCc4ccc(C#N)cc4F)n3)CC2)nc2c(OC(F)F)cc(C(=O)O)cc21
bioavailability: > 85%

Now take the following molecule into account.
For COc1cc(C(=O)O)cc2c1nc(CN1CCC(c3cccc(OCc4ccc(Cl)cc4F)n3)CC1)n2C the molecule record lists bioavailability as > 85%

* * *

target: human GLP-1R receptor (Homo sapiens, UniProt P43220); construct: expressed in transfected cells; test: GLP-1R low expression cell assay (cAMP TR-FRET, CHO-K1_hGLP-1Rlow_clone10 cells); assay type: cell-based; settings: maximum activation relative to control GLP-1 peptide agonist
Sequence (P43220 24-463): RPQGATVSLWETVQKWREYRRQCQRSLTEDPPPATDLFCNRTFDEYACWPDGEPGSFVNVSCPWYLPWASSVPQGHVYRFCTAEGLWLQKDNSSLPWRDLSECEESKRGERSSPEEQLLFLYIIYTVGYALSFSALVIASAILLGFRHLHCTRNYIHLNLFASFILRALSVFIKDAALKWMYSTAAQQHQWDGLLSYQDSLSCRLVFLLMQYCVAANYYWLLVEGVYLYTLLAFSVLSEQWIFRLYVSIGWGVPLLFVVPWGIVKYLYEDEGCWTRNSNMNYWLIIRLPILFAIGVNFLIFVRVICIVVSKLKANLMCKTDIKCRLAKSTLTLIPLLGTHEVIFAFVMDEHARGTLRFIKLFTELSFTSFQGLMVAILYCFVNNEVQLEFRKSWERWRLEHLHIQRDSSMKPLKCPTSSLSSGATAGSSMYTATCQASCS
METRIC: Emax

# annotated cases, reported Emax shown
SMILES ENTRY: Cn1c(CN2CCC(c3cccc(OCc4ccc(C#N)cc4F)n3)CC2)nc2c(OCCF)cc(C(=O)O)cc21
METRIC: Emax
ASSAY RESULT: > 85%
//
SMILES ENTRY: CO[C@H]1C[C@@H](Oc2cc(C(=O)O)cc3c2nc(CN2CCC(c4cccc(OCc5ccc(C#N)cc5F)n4)CC2)n3C)C1
METRIC: Emax
ASSAY RESULT: > 85%

For Cn1c(CN2CCC(c3cccc(OCc4ccc(C#N)cc4F)n3)CC2)nc2c(N3CCOCC3)cc(C(=O)O)cc21 the compound record lists Emax as > 85%

For O=C(O)c1ccc2c(nc(CN3CCC(c4cccc(OCc5ccc(Cl)cc5F)n4)CC3)n2C[C@@H]2CCO2)c1OC(F)F the compound record lists Emax as > 85%

For Cn1c(CN2CCC(c3cccc(OCc4ccc(Cl)cc4F)n3)CC2)nc2ccc(C(=O)O)c(O)c21 the compound record lists Emax as > 85%

For CCOc1cc(C(=O)NS(C)(=O)=O)cc2c1nc(CN1CCC(c3cccc(OCc4ccc(C#N)cc4F)n3)CC1)n2C the compound record lists Emax as > 85%

For Cn1c(CN2CCC(c3cccc(OCc4ccc(Cl)cc4F)c3)CC2)nc2c(OC(F)F)cc(N3CC(=O)NS3(=O)=O)cc21 the compound record lists Emax as 50 to 85%

* * *

target: human GLP-1R receptor (Homo sapiens, UniProt P43220); test: GLP-1R low expression cell assay (cAMP TR-FRET, CHO-K1_hGLP-1Rlow_clone10 cells); settings: cAMP TR-FRET, 30 min at 25° C.
pEC50: −log10 of the molar value.
METRIC: pEC50

MOLECULE: C[C@H](c1nc2c(OC(F)F)cc(C(=O)O)cc2n1C)N1CCC(c2cccc(OCc3ccc(C#N)cc3F)n2)CC1
SYSTEM UNDER TEST: human GLP-1R receptor (Homo sapiens, UniProt P43220)
pEC50: < 6.00
--
MOLECULE: Cn1c(CN2CCC(c3cccc(Cl)c3OCc3ccc(C#N)cc3F)CC2)nc2c(OC(F)F)cc(C(=O)O)cc21
SYSTEM UNDER TEST: human GLP-1R receptor (Homo sapiens, UniProt P43220)
pEC50: < 6.00

For COc1cc(C(=O)O)cc2c1nc(CN1CCC(c3cccc(OCc4ccc(Cl)cc4F)n3)CC1)n2C the molecule record lists pEC50 as > 8.00

For Cn1c(CN2CCC(c3cccc(OCc4ccc(C#N)cc4F)n3)CC2)nc2c(OCC(F)(F)F)cc(C(=O)O)cc21 the molecule record lists pEC50 as > 8.00

* * *

molecular target: UniProt:P43220; test: GLP-1R low expression cell assay (cAMP TR-FRET, CHO-K1_hGLP-1Rlow_clone10 cells); conditions: cAMP TR-FRET, 30 min at 25° C.
pEC50: −log10 of the molar value.
METRIC: pEC50

For [2H]C([2H])(C)Oc1cc(C(=O)O)cc2c1nc(CN1CCC(c3cccc(OC([2H])([2H])c4ccc(Cl)cc4F)n3)CC1)n2C the molecule record lists pEC50 as > 8.00

For O=C(O)c1cc(OC(F)F)c2nc(CN3CCC(c4cccc(OCc5ccc(Cl)cc5F)n4)CC3)n(C3CC3)c2c1 the molecule record lists pEC50 as 7.00 to 8.00

For Cn1c(CN2CCC(c3cccc4c3O[C@@](C)(c3ccc(Cl)cn3)O4)CC2)nc2c(C(C)(F)F)cc(C(=O)O)cc21 the molecule record lists pEC50 as 6.00 to 7.00

* * *

target: human GLP-1R receptor (Homo sapiens, UniProt P43220); test: GLP-1R low expression cell assay (cAMP TR-FRET, CHO-K1_hGLP-1Rlow_clone10 cells); details: cAMP TR-FRET, 30 min at 25° C.
pEC50: −log10 of the molar value.
Catalogue of pEC50 values

The value of pEC50 recorded for COc1cc(C(=O)O)cc2c1nc(CN1CCC(c3cccc4c3O[C@@H](c3ccc(Cl)cc3F)CO4)CC1)n2C when tested on human GLP-1R receptor (Homo sapiens, UniProt P43220) reads > 8.00

The value of pEC50 recorded for Cn1c(CN2CCC(c3ccnnc3OCc3ccc(Cl)cc3F)CC2)nc2c(OC(F)F)cc(C(=O)O)cc21 when tested on human GLP-1R receptor (Homo sapiens, UniProt P43220) reads 6.00 to 7.00

* * *

assay: Rat pharmacokinetics, oral dosing; assay type: in vivo, Sprague-Dawley rats; conditions: male, Sprague-Dawley, oral dosing at 3 mg/kg, plasma, read-out: Rat T1/2
Catalogue of half-life values

MOLECULE: C[C@]1(c2ccc(Cl)cn2)Oc2cccc(C3CCN(Cc4nc5c(OC(F)F)cc(C(=O)O)cc5n4C[C@@H]4CCO4)CC3)c2O1
half-life: 1.5 to 2.5 h

MOLECULE: COc1cc(C(=O)O)c(F)c2c1nc(CN1CCC(c3cccc(OCc4ccc(C#N)cc4F)n3)CC1)n2C
half-life: ≥ 2.5 h

MOLECULE: Cn1c(CN2CCC(c3cccc4c3OC(c3ccc(Cl)cc3F)C=C4)CC2)nc2c(OC(F)F)cc(C(=O)O)cc21 (single isomer, unassigned)
half-life: < 1.5 h

MOLECULE: Cn1c(CN2CCC(c3cccc(OCc4ccc(Cl)cc4F)n3)CC2)nc2c(OC(F)F)cc(C(=O)O)cc21
half-life: ≥ 2.5 h

MOLECULE: C[C@@]1(c2ccc(Cl)cn2)Oc2cccc(C3CCN(Cc4nc5c(OC6CC6)cc(C(=O)O)cc5n4Cc4cncs4)CC3)c2O1
half-life: ≥ 2.5 h

For Cn1c(N(C)[C@H]2CC[C@H](c3cccc(OCc4ccc(C#N)cc4F)n3)CC2)nc2c(OC(F)F)cc(C(=O)O)cc21 the molecule record lists half-life as 1.5 to 2.5 h

* * *

Catalogue of pEC50 values
target: human GLP-1R receptor (Homo sapiens, UniProt P43220); assay: GLP-1R low expression cell assay (cAMP TR-FRET, CHO-K1_hGLP-1Rlow_clone10 cells); conditions: cAMP TR-FRET, 30 min at 25° C.
pEC50: −log10 of the molar value.

SMILES ENTRY: Cn1c(CN2CCC(c3ccc4ccn(Cc5ccc(Cl)cc5F)c4n3)CC2)nc2c(OC(F)F)cc(C(=O)O)cc21
METRIC: pEC50
ASSAY RESULT: < 6.00

SMILES ENTRY: Cn1c(CN2CCC(c3ccc(Cl)c(OCc4ccc(Cl)cc4F)c3)CC2)nc2c(OC(F)F)cc(C(=O)O)cc21
METRIC: pEC50
ASSAY RESULT: 6.00 to 7.00

SMILES ENTRY: [2H]C([2H])(C)Oc1cc(C(=O)O)cc2c1nc(CN1CCC(c3cccc(OCc4ccc(Cl)cc4F)c3)CC1)n2C
METRIC: pEC50
ASSAY RESULT: 7.00 to 8.00

SMILES ENTRY: Cn1c(CN2CCC(c3cccc(OCc4ccc(Cl)c5c4OCC5)n3)CC2)nc2c(OC(F)F)cc(C(=O)O)cc21
METRIC: pEC50
ASSAY RESULT: 7.00 to 8.00

SMILES ENTRY: CCOc1cc(C(=O)O)cc2c1nc(CN1CCC(c3cccc4c3O[C@H](c3ccc(C#N)cc3F)CO4)CC1)n2C
METRIC: pEC50
ASSAY RESULT: 7.00 to 8.00

SMILES ENTRY: N#Cc1ccc(COc2cccc(C3CCN(Cc4nc5c(OC(F)F)cc(C(=O)O)cc5n4CC4(C#N)CC4)CC3)n2)c(F)c1
METRIC: pEC50
ASSAY RESULT: > 8.00

Now take the following molecule into account.
For CN(c1nc2c(OC(F)F)cc(C(=O)O)cc2n1C[C@@H]1CCO1)[C@H]1CC[C@H](c2cccc(OCc3ccc(C#N)cc3F)n2)CC1 the molecule record lists pEC50 as > 8.00

Reference source for all entries: patent US20240368120A1
